Consider the following compounds; for each one, report its CC50 at 7 days.
Test: In vitro cytotoxicity, MTT cell viability assay in HepG2 cells
Assay type: cell-based
Details: human, Cytotoxicity CC50
Protocol: To evaluate antiviral selectivity, the cytotoxic activity of each compound was determined using a standard cell viability assay performed on the parental HepG2 cell line. Cell viability was determined by measuring the conversion of 3-(4,5-dimethylthiazol-2-yl)-2,5-diphenyltetrazolium bromide (MTT) to the insoluble formazan salt crystal that occurs in live cells. […] All absorbance values were converted to a percentage of the signal obtained from the vehicle treated controls. […]

Worked set:
CC(=O)N1[C@H](C)CN(C(=O)C(F)(F)c2cc(C(=O)Nc3ccc(F)c(C)c3)ccc2F)C[C@@H]1C :: 5 to 30 µM
Cc1cc(NC(=O)c2ccc([C@@H](O)CO)c(C(F)(F)C(=O)NC(C)(C)C)c2)ccc1F :: > 30 µM
O=C(Nc1ccc(F)c(F)c1)c1ccc(F)c(C(F)(F)C(=O)Nc2ccncc2)c1 :: 5 to 30 µM
Cc1cc(NC(=O)c2ccc(F)c(C(F)(F)C(=O)N3[C@@H]4CC[C@H]3C[C@@H](NC(=O)OC(C)(C)C)C4)c2)ccc1F :: 5 to 30 µM
Cc1cc(NC(=O)c2cn(C)c(C(F)(F)C(=O)NC(C)(C)CO)c2C)ccc1F :: > 30 µM

Take each entry in turn and give its CC50 at 7 days.
1. Cc1cc(NC(=O)c2ccc(Cl)c(C(F)(F)C(=O)N3CCC(B(O)O)CC3)c2)ccc1F
2. O=C(Nc1cc(F)c(F)c(F)c1)c1ccc(Cl)c(C(F)(F)C(=O)N2CCC(O)CC2)c1
3. Cc1cc(NC(=O)c2ccc(F)c(C(F)(F)C(=O)NCc3nccs3)c2)ccc1F
4. O=C(Nc1cc(F)c(F)c(F)c1)c1ccc(F)c(C(F)(F)C(=O)N2[C@@H]3CC[C@H]2C[C@@H](O)C3)c1
5. O=C(Nc1ccnc(Cl)c1)c1ccc(F)c(C(F)(F)C(=O)N2CCC(O)C(F)(F)C2)c1 (stereo not drawn)

1. > 30 µM
2. 5 to 30 µM
3. 5 to 30 µM
4. 5 to 30 µM
5. < 5 µM

###

Please respond with reported CC50 at 7 days for every item in the list.
test: In vitro cytotoxicity, MTT cell viability assay in HepG2 cells; format: cell-based; settings: human, Cytotoxicity CC50

Recorded results for 8 molecules are shown here.
NC(=O)c1cc(NC(=O)c2ccc(Cl)c(C(F)(F)C(=O)N3CCC(O)CC3)c2)ccc1F [Example 60] :: > 30 µM
Cc1cc(NC(=O)c2c(C)cn(C)c2C(F)(F)C(=O)NC(C)(C)C)ccc1F [Example 114] :: > 30 µM
Cc1cc(NC(=O)c2ccc(F)c(C(F)(F)C(=O)N3CCC(NS(C)(=O)=O)C(C)(C)C3)c2)ccc1F (centres unmarked) [Example 286] :: 5 to 30 µM
COc1ccc(C(=O)Nc2ccc(F)c(C)c2)cc1C(F)(F)C(=O)N1CCC(O)CC1 [Example 94] :: > 30 µM
Cc1cc(NC(=O)c2ccc(F)c(C(F)(F)C(=O)N3[C@@H]4CC[C@H]3C[C@@H](N)C4)c2)ccc1F [Example 226] :: 5 to 30 µM
CCCN(CCO)C(=O)C(F)(F)c1cc(C(=O)Nc2ccc(F)c(F)c2)ccc1F [Example 52] :: > 30 µM
Cc1cc(NC(=O)c2cccc(C(F)(F)C(=O)N3CCC(O)CC3)c2F)ccc1F [Example 92] :: 5 to 30 µM
Cc1cc(NC(=O)c2cc(C(F)(F)C(=O)NC3(C)CCCOC3)n(C)c2)ccc1F (centres unmarked) [Example 133] :: > 30 µM

Report CC50 at 7 days for every entry below.
1. O=C(Nc1ccc(F)c(Br)c1)c1ccc(F)c(C(F)(F)C(=O)N2CCC(O)C(F)(F)C2)c1 (centres unmarked) [Example 175]
2. Cc1cc(NC(=O)c2ccc(F)c(C(F)(F)C(=O)N3C4CC[C@@H]3C[C@@H](C(N)=O)C4)c2)ccc1F [Example 257]

["5 to 30 µM", "5 to 30 µM"]

Can you give me CC50 at 7 days for all of these, one by one?
1. Cc1cc(NC(=O)c2ccc(F)c(C(F)(F)C(=O)N3[C@H](C)CN(S(=O)(=O)C4CC4)C[C@@H]3C)c2)ccc1F [Example 292]
2. Cc1cc(NC(=O)c2ccc(F)c(C(F)(F)C(=O)NCB3O[C@@H]4C[C@@H]5C[C@@H](C5(C)C)[C@]4(C)O3)c2)ccc1F [Example 149]

5 to 30 µM
5 to 30 µM
